B1: INTS3 (parent)
chain: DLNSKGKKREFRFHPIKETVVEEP

# Variants of: B1
# assay_text: protein stability index of a GFP-peptide fusion (GPS, HEK-293T) (PSI 1-6); higher = more stable;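 also: lentivirally expressed fusions sorted by FACS into six bins by GFP to DsRed ratio, PSI derived from sequencing read proportions per bin multiplied by bin number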
# condition_context: c terminus: a fixed tail appended
readout_type: protein stability index
Please reply with the number alone, leaving off any unit.

Prompt line: Param item = F11Y ; retrieve measured protein stability index.
Response line: 3.89

Prompt line: Repeat for the following variant: F11K
Response line: 4.46

Prompt line: I16F , same question.
Response line: 1.88

Prompt line: What about this variant? H14P
Response line: 4.35

Prompt line: Now give it for E10W too.
Response line: 2.1

Prompt line: Then this variant: E22V
Response line: 1.69

Prompt line: Would you mind doing V21D as well?
Response line: 2.71

Prompt line: Now consider V21P and answer again.
Response line: 2.22

Prompt line: Follow-up item: P15V
Response line: 3.25

Prompt line: Then what about the variant P15T ?
Response line: 2.96

Prompt line: Now this one: E18Y
Response line: 2.41
